System: SDMA in human colon cancer cell line HCT116
Assay: Cell symmetric dimethylarginine (SDMA) test, In-cell Western, HCT116 (MTAP wild-type)
Type: cell-based
Settings: Homo sapiens, HCT-116, 96 h, read-out: Cell 96 h SDMA inhibition (HCT116-MTAP+/+)
readout name: IC50 (nM)
Answers are plain numbers, in nM.

// below: answered compounds
{"input smiles": "O=c1c2n[nH]cc2c2ccc(C(F)(F)F)nc2n1-c1cccnc1", "endpoint result": 1060}
{"input smiles": "Cn1cc2c(n1)c(=O)n(-c1cccnc1Cl)c1nc(C(F)(F)F)ccc21", "endpoint result": 691}

Now turn to the next compound.
Which measured IC50 value corresponds to Cc1ncccc1-n1c(=O)c2nn(C)cc2c2ccc(C3CC3)nc21 ? 298
